Molecular target: E3 ubiquitin-protein ligase Mdm2 (Homo sapiens)
Sequence (Q00987 whole entry): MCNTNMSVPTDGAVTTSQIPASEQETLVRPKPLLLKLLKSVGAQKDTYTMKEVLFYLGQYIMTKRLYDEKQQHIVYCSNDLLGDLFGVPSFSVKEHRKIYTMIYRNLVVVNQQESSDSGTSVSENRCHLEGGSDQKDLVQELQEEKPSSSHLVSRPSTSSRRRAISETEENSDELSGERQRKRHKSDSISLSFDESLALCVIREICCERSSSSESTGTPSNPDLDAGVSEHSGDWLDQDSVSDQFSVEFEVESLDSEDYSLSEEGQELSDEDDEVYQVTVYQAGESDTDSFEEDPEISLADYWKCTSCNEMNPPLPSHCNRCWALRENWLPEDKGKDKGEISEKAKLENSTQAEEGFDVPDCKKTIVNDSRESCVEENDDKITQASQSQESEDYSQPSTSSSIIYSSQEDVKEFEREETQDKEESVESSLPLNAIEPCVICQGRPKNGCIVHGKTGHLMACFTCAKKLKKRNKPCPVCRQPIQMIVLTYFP
Experimental endpoint: IC50
Report as: number unit

Fill blank: measured IC50 of the compound "CC(C)Oc1ccc(C(=O)NS(=O)(=O)c2ccc(N=Nc3c(O)n(-c4ccccc4)n(-c4ccccc4)c3=O)cc2)cc1" is ____.
31.8 µM

Data provenance: BindingDB's records for doi:10.1021/jm034182u
